The reported numbers originate from patent US8461124B2.

System: complementary RNA
MEASUREMENT_DESCRIPTION: Thermal denaturation (UV melting) of AON duplexes with complementary RNA
Assay type: binding
CONDITION_INFO: 1 μM of each strand, medium salt buffer pH 7.5, average of at least three runs
RESULT_TYPE: Tm/° C. with RNA (°C)
Lab book: enter the figure in °C, no units written.

| SUBSTANCE | Tm/° C. with RNA, °C |
| --- | --- |
| 3′-d(CTTCTTTTTT(aza-ENA)ACTTC)-5′ (antisense CTTCTTTTTTACTTC; aza-ENA-T at position 10 from 3'-end, chemistry not fully specified) [AON 17, aza-ENA-T modified AON, position 10 from 3′-end] | 48 |

Note: attention shifts to another entry.
(Q) Quick check: Tm/° C. with RNA of 3′-d(CTTCTTTT(aza-ENA)TTACTTC)-5′ (antisense CTTCTTTTTTACTTC; aza-ENA-T at position 8 from 3'-end, chemistry not fully specified) [AON 16, aza-ENA-T modified AON, position 8 from 3′-end] ?
(A) 47.5

---

Attribute: ΔTm* (Tm relative to DNA compliment)
System: complementary DNA
MEASUREMENT_DESCRIPTION: Thermal denaturation (UV melting) of AON duplexes with complementary DNA
Format: binding
CONDITION_INFO: relative to native AON 1/DNA duplex
Lab book: enter the figure in °C, no units written.

Worked cases, ΔTm* (Tm relative to DNA compliment) given:
| SUBSTANCE | UNITS_TEXT | ΔTm* (Tm relative to DNA compliment) |
| --- | --- | --- |
| 3′-d(CTTCTTTTTT(6-carbo)ACTTC)-5′ [AON 13] | °C | −5.5 |
| 3′-d(CTT(6-carbo)CTTTTTTACTTC)-5′ (antisense CTTCTTTTTTACTTC; carbocyclic-ENA-T at position 3 from 3'-end, chemistry not fully specified) [AON 10, carbocyclic-ENA-T modified AON, position 3 from 3′-end] | °C | −1.5 |

Note: attention shifts to another entry.
(Q) Quick check: ΔTm* (Tm relative to DNA compliment) of 3′-d(CTTCTT(5-carbo)TTTTACTTC)-5′ (antisense CTTCTTTTTTACTTC; carbocyclic-LNA-T at position 6 from 3'-end, chemistry not fully specified) [AON 7, carbocyclic-LNA-T modified AON, position 6 from 3′-end] ?
(A) −1.00

---

Tested on: complementary RNA
MEASUREMENT_DESCRIPTION: Thermal denaturation (UV melting) of AON duplexes with complementary RNA
Format: binding
CONDITION_INFO: relative to native AON 1/RNA duplex
RESULT_TYPE: ΔTm (Tm relative to RNA compliment)

Worked cases, ΔTm (Tm relative to RNA compliment) given:
| SUBSTANCE | ΔTm (Tm relative to RNA compliment) |
| --- | --- |
| 3′-d(CTTCTTTT(6-carbo)TTACTTC)-5′ [AON 12] | +1.5 °C |
| 3′-d(CTTCTTTTTT(aza-ENA)ACTTC)-5′ (antisense CTTCTTTTTTACTTC; aza-ENA-T at position 10 from 3'-end, chemistry not fully specified) [AON 17, aza-ENA-T modified AON, position 10 from 3′-end] | +4 °C |

Note: attention shifts to another entry.
(Q) Write down the reported ΔTm (Tm relative to RNA compliment) of 3′-d(CTT(6-carbo)CTTTTTTACTTC)-5′ (antisense CTTCTTTTTTACTTC; carbocyclic-ENA-T at position 3 from 3'-end, chemistry not fully specified) [AON 10, carbocyclic-ENA-T modified AON, position 3 from 3′-end] , test system: complementary RNA.
(A) +1.5 °C
